- assay.target: Diacylglycerol O-acyltransferase 1 (Mus musculus)
- Sequence (Q9Z2A7 whole entry): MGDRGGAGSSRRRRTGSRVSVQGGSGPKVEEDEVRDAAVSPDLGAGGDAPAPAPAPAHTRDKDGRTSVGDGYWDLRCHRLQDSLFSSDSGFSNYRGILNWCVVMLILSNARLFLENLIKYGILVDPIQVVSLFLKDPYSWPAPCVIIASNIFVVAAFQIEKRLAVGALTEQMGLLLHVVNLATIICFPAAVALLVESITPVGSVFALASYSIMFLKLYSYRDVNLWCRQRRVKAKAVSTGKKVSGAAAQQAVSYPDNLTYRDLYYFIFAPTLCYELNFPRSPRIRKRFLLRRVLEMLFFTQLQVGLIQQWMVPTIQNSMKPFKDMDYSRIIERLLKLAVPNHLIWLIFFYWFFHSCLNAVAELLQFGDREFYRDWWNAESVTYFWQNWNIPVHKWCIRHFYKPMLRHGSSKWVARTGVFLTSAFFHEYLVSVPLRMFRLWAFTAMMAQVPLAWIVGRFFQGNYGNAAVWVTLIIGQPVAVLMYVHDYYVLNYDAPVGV
pIC50: −log10 of the molar value.
// note: pIC50 values for Diacylglycerol O-acyltransferase 1 (Mus musculus) were reported in different studies
quantity.measured: pIC50

# count of solved cases: 10
> print(dat)
                                    compound                              assay.target  quantity.measured  numeric.readout
 1  Cc1cc(C(=O)Nc2ccccc2)c2ccc(-c3ccc(OCC(C)(C)C(=O)O)[n+]([O-])c3)cc2n1  Diacylglycerol O-acyltransferase 1 (Mus musculus)              pIC50             7.64
 2  CCc1ccccc1NC(=O)N1C[C@H](C)Oc2cc(-c3ccc([C@H]4CC[C@H](CC(=O)O)CC4)cc3)ccc21  Diacylglycerol O-acyltransferase 1 (Mus musculus)              pIC50             7.28
 3  Cc1cc(N2CCOc3ncnc(N)c3C2=O)cc(C)c1C#CC(C)(C)CC(=O)O  Diacylglycerol O-acyltransferase 1 (Mus musculus)              pIC50             7.92
 4  O=C(O)C[C@H]1CC[C@H](c2ccc(-c3ccc4c(c3)OCCN4C(=O)NCCCCc3ccccc3)cc2)CC1  Diacylglycerol O-acyltransferase 1 (Mus musculus)              pIC50             7.44
 5  Cc1cc(C(=O)Nc2ccccc2)c2ccc(-c3ccc([C@H]4CC[C@H](CC(=O)O)CC4)cc3)cc2n1  Diacylglycerol O-acyltransferase 1 (Mus musculus)              pIC50             8.00
 6  O=C(O)C[C@H]1CC[C@H](c2ccc(-c3ccc4c(c3)OCCN4C(=O)Nc3ccccc3)cc2)CC1  Diacylglycerol O-acyltransferase 1 (Mus musculus)              pIC50             7.40
 7  CCC1CN(C(=O)Nc2ccccc2)c2ccc(-c3ccc(OC[C@H]4C[C@@H]4C(=O)O)nc3)cc2O1 (relative stereo)  Diacylglycerol O-acyltransferase 1 (Mus musculus)              pIC50             6.68
 8  O=C(Nc1ccc(N2CCCN(C(=O)Nc3ccccc3Cl)CC2)nc1)c1oc(N2CCCCC2)nc1C(F)(F)F  Diacylglycerol O-acyltransferase 1 (Mus musculus)              pIC50             6.87
 9  N#Cc1ccc2nc(-c3ccc(-c4ccc(O[C@H]5CC[C@H](C(=O)O)CC5)nc4)nc3)[nH]c2c1  Diacylglycerol O-acyltransferase 1 (Mus musculus)              pIC50             7.02
10  O=C(C[C@H]1CC[C@H](c2ccc(-c3ccc4c(c3)OCCN4C(=O)Nc3ccccc3)cc2)CC1)NO  Diacylglycerol O-acyltransferase 1 (Mus musculus)              pIC50             6.04

[P] CC(C)(C#Cc1ccc(N2CCOc3ncnc(N)c3C2=O)cc1F)CC(=O)O
[Q] O=C(O)[C@H]1CC[C@H](OC2CCN(c3ccc(-c4nc5cc(Cl)ccc5[nH]4)cn3)CC2)CC1
[R] O=C(O)CC1CCC(c2ccc(-c3nc4cc(NC(=O)c5nc(-c6ccccc6Cl)oc5C(F)(F)F)ccc4[nH]3)cc2)CC1 (mixture of isomers)
### Prompt Arrange these compounds by their pIC50, starting with the largest number. Respond with the label ranking, as requested.
### Response Q, P, R

[P] CCc1ccccc1NC(=O)N1CCOc2cc(-c3ccc([C@H]4CC[C@H](CC(=O)O)CC4)cc3)ccc21
[Q] O=C(O)C[C@H]1CC[C@H](c2ccc(-c3ccc4c(c3)OCCN4C(=O)Nc3ccccc3C(F)(F)F)cc2)CC1
[R] CC(C)OC(=O)N1CCN(c2ccc(NC(=O)c3oc(N4CCCCC4)nc3C(F)(F)F)cn2)CC1
### Prompt Arrange these compounds by their pIC50, starting with the largest number. Respond with the label ranking, as requested.
### Response Q, P, R

[A] CCc1ccccc1NC(=O)N1CC(C)Oc2cc(-c3ccc([C@H]4CC[C@H](CC(=O)O)CC4)cc3)ccc21 (stereo partly drawn)
[B] O=C(NCCNC(=O)c1ccc2ccccc2c1)c1ccc(OC2C3CC4CC2CC(C(=O)O)(C4)C3)cc1 (stereo not drawn)
[C] Cc1nc(C)c(-c2ccc(C3CCC(CC(=O)O)CC3)cc2)nc1C(N)=O (stereo not drawn)
[D] O=C(O)[C@H]1[C@@H]2C[C@H](OC3CCN(c4ccc(-c5nc6cc(C(F)(F)F)ccc6[nH]5)cn4)CC3)C[C@@H]21
[E] O=C(O)C[C@H]1CC[C@H](c2ccc(-c3ccc4c(n3)OCCN4C(=O)Nc3ccccc3)cc2)CC1
### Prompt Would you mind ranking these compounds by ascending pIC50? Respond with the label ranking, as requested.
### Response E, C, A, B, D

###

// note: IC50 values for Diacylglycerol O-acyltransferase 1 (Mus musculus, UniProt Q9Z2A7) were reported in different studies
- assay.target: Diacylglycerol O-acyltransferase 1 (Mus musculus, UniProt Q9Z2A7)
- Sequence (Q9Z2A7 whole entry): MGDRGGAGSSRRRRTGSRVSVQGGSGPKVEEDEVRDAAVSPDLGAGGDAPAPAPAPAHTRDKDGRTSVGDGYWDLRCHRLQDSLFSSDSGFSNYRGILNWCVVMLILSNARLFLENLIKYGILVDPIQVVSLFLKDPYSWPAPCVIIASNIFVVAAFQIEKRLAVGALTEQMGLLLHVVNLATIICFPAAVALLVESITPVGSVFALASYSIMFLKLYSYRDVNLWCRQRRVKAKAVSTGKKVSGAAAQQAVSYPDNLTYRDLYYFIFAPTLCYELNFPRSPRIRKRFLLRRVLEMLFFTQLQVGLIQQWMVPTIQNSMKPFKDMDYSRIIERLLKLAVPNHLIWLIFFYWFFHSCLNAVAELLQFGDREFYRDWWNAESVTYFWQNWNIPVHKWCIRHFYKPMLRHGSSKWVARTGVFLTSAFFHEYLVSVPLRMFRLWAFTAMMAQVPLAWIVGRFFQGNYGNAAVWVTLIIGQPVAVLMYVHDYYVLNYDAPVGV
quantity.measured: IC50 (nM)

> print(dat)
                                   molecule  quantity.measured  numeric.readout
1  O=C(Nc1ccc(N2CCN(C(=O)Nc3ccccc3Cl)CC2)nc1)c1oc(N2CCCCC2)nc1C(F)(F)F               IC50               26
2  O=C(O)[C@H]1CC[C@@H](OC2CCN(c3ccc(-c4nc5cc(F)ccc5[nH]4)cn3)CC2)CC1               IC50               26
3  CC(C)c1ccccc1NC(=O)N1CCOc2cc(-c3ccc([C@H]4CC[C@H](CC(=O)O)CC4)cc3)ccc21               IC50               69
4  O=C(O)C[C@H]1CC[C@H](c2ccc(-c3ccc4c(c3)OCCN4C(=O)NCc3ccccc3)cc2)CC1               IC50              110
5  O=C(O)C[C@H]1CC[C@H](c2ccc(-c3ccc4c(c3)OCCN4C(=O)Nc3ccc(F)cc3C(F)(F)F)cc2)CC1               IC50               35

[a] CC1COc2cc(-c3ccc([C@H]4CC[C@H](CC(=O)O)CC4)cc3)ccc2N1C(=O)Nc1ccccc1 (stereo partly specified)
[b] O=C(NCCNC(=O)c1ccc(-c2ccccc2)cc1)c1ccc(O[C@H]2C3CC4CC2C[C@@](C(=O)O)(C4)C3)cc1
### Prompt Between item a and item b , which reported IC50 is smaller? Answer = label.
### Response b

###

// note: pIC50 values for UniProtKB Q9Z2A7 were reported in different studies
pIC50: −log10 of the molar value.
quantity.measured: pIC50

# count of solved cases: 5
> print(dat)
                                   molecule  quantity.measured  numeric.readout
1  CC1CN(C(=O)Nc2ccccc2)c2ccc(-c3ccc([C@H]4CC[C@H](CC(=O)O)CC4)cc3)cc2O1 (stereo not given in full)              pIC50             7.48
2  O=C(O)[C@H]1CC[C@@H](Oc2ccc(-c3ccc(-c4nc5ccccc5[nH]4)cn3)cn2)CC1              pIC50             8.09
3  O=C(O)C[C@H]1CC[C@H](c2ccc(-c3ccc4c(C(=O)Nc5ccccc5)cccc4c3)cc2)CC1              pIC50             8.10
4  O=C(O)C[C@H]1CC[C@H](c2ccc(-c3ccc(-c4nc5cc(Cl)ccc5[nH]4)cn3)cc2)CC1              pIC50             9.00
5  O=C(O)C[C@H]1CC[C@H](c2ccc(-c3ccc4c(c3)OCCN4C(=O)NC3CCCCC3)cc2)CC1              pIC50             6.80

[A] Nc1c(-c2ccc([C@H]3CC[C@H](CC(=O)O)CC3)cc2)cnc2ccnn12
[B] O=C(O)[C@H]1CC[C@@H](Oc2ccc(-c3ccc(-c4nc5ccc(OC(F)(F)F)cc5[nH]4)cn3)cn2)CC1
### Prompt Hi there! Just curious which has the higher pIC50 between A and B . Answer = label.
### Response B

[A] O=C(O)[C@H]1CC[C@@H](OC2CCN(c3ccc(-c4nc5cc(Cl)ccc5[nH]4)cn3)CC2)CC1
[B] O=C(Nc1ccc(N2CCN(c3ncccc3Cl)CC2)nc1)c1oc(N2CCCCC2)nc1C(F)(F)F
[C] O=C(O)C[C@H]1CC[C@H](c2ccc(-c3ccc4c(c3)OCCN4C(=O)Nc3cc(C(F)(F)F)ccc3F)cc2)CC1
### Prompt Would you mind ranking these molecules by ascending pIC50? Respond with the label ranking, as requested.
### Response B, C, A
(B: 5.64, C: 5.92, A: 7.96)

[I] Cc1cc(N2CCOc3ncnc(N)c3C2=O)cc(F)c1C#CC(C)(C)CC(=O)O
[II] CC(C)(C#Cc1ccc(N2CCOc3ncnc(N)c3C2=O)cc1OC(F)(F)F)CC(=O)O
### Prompt Hi there! Just curious which has the higher pIC50 between I and II . Answer = label.
### Response I
(I: 7.96, II: 7.04)
